System: BaF3 cells transduced with neo-myc
Experiment: MTS assay, growth of BaF3 cells transduced with neo-myc (negative control)
Type: cell-based
Conditions: Mus musculus, 72 hours, second experiment only
MEASURED_ATTRIBUTE: pIC50
# pIC50 is unitless: minus log10 of the molar concentration; print number only

## Input Dear colleague, I am looking for the recorded pIC50 of the following compound: COc1cc(N2CCC(N3CCN(C)CC3)CC2)ccc1Nc1ncc(Cl)c(Nc2ccccc2S(=O)(=O)C(C)C)n1 [TAE-684]
## Output 5.78
